# ASSAY SUMMARY: Cytotoxicity in human CEM/0 cells assessed as reduction in cell viability
# Type: toxicity, cell-based
# MEASUREMENT CONTEXT: CEM/0 cells (CCRF-CEM)

- COMPOUND: "Cc1cn([C@H]2C[C@H](F)[C@@H](CO)O2)c(=O)[nH]c1=O [ALOVUDINE]"
  CC50: "> 100 µM"

---

# ASSAY SUMMARY: Chemical stability in PBS buffer assessed dephosphorylated half life measured after 24 hrs in presence of CEM/0 cell extract medium by RP-HPLC analysis relative to control
# Type: physicochemical
# MEASUREMENT CONTEXT: human, PBS buffer with CEM/0 cell extract
VALUE TYPE: half-life (min)

- MOLECULE: "Cc1cn([C@H]2C[C@H](O)[C@@H](COP(=O)(O)OP(=O)(O)OP(=O)(O)O)O2)c(=O)[nH]c1=O [DEOXYTHYMIDINE_TRIPHOSPHATE]"
  REPORTED MEASUREMENT: 25.8
- MOLECULE: "Cc1cn([C@H]2C[C@H](F)[C@@H](COP(=O)(O)OP(=O)(O)OP(=O)(O)O)O2)c(=O)[nH]c1=O.N.N.N.N"
  REPORTED MEASUREMENT: 25.8
